- Condition Notes: 336.15 K; 101.33 kPa; Liquid; Vibrating tube method
Quantity: mass density (kg/m3)
Please give a number only; it is taken to be in kg/m3.

{"columns": ["Compound", "Quantity", "Reported"],
 "data": [
  ["CCCCOS(=O)(=O)[O-].CC[n+]1ccn(C)c1 [3-ethyl-1-methylimidazolium butyl sulfate]", "mass density", 1150.9],
  ["CCCCCCCCOS(=O)(=O)[O-].CCn1cc[n+](C)c1 [1-ethyl-3-methylimidazolium octyl sulfate]", "mass density", 1070.64],
  ["CCn1cc[n+](C)c1.O=S(=O)([O-])O [1-ethyl-3-methylimidazolium hydrogen sulfate]", "mass density", 1342.77],
  ["CCn1cc[n+](C)c1.COS(=O)(=O)[O-] [1-ethyl-3-methylimidazolium methylsulfate]", "mass density", 1260.42]
]}

Lab note: CCCCCCOS(=O)(=O)[O-].CC[n+]1ccn(C)c1 [3-ethyl-1-methyl-1H-imidazolium hexyl sulfate] gave mass density of 1105.33
